Where do these numbers come from? They come from PubChem BioAssay (NCATS).

TARGET: Glutathione peroxidase 1 (Homo sapiens) (UniProt P07203)
Sequence (P07203 whole entry, looked up): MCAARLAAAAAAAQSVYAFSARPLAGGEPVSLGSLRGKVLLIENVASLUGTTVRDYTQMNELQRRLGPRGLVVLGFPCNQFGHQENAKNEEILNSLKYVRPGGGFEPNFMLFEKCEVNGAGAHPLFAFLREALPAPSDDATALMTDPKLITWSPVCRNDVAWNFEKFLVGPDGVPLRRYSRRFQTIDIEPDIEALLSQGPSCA
MEASUREMENT PROTOCOL: Primary qHTS Assay for Inhibitors of Recombinant Selenoprotein Glutathione Peroxidase 1 (GPX1) (AID 1845191); also: nearly all actives have a fitted effect of over 65% in size
SETTINGS: recombinant GPX1, GR-coupled NADPH fluorescence, 15 min; series mostly up to 48.8 µM
Results filed as inconclusive are left out. Calls of active or inactive are those of the source. Calls follow the shape of the dose curve; as a rule, active = well fitted inhibition curve with a large enough effect; inconclusive = small, poorly fitted or top-dose-only effect; inactive = flat fitted curve, though single readings scatter.
OBSERVABLE: outcome

Examples from the recorded data:
COMPOUND	outcome
CN1CCCN=C1COC(=O)C(O)(c1ccccc1)C1CCCCC1 (stereo unspecified)	inactive
c1ccc2[nH]ccc2c1	inactive
NS(=O)(=O)c1cc(C2(O)NC(=O)c3ccccc32)ccc1Cl (stereo unspecified)	inactive
Cc1onc(-c2ccccc2)c1-c1ccc(S(N)(=O)=O)cc1	inactive

Ask: # query: outcome of entry "Nc1ccc(S(=O)(=O)c2ccc(N)cc2)cc1"
Result: inactive

Ask: Same again, this time with "O[C@@H]1CO[C@H]2[C@@H]1OC[C@@H]2O"
Result: inactive

----------
Tested on: GB4
MEASUREMENT PROTOCOL: qHTS profiling for inhibitors of Plasmodium falciparum proliferation (AID 504749); also: nearly all actives have a fitted effect of over 60% in size
SETTINGS: P. falciparum in erythrocytes, SYBR Green DNA, 72 h; series mostly up to 28.7 µM
Inconclusive results are not listed. Activity calls are given as the source filed them. Calls follow the shape of the dose curve; as a rule, active = well fitted inhibition curve with a large enough effect; inconclusive = small, poorly fitted or top-dose-only effect; inactive = flat fitted curve, though single readings scatter.
Hi! Could you answer with just one of these? yes = active, no = inactive

Ask: // return assay outcome for "COc1ccccc1Oc1c(NS(=O)(=O)c2ccc(C(C)(C)C)cc2)nc(-c2ncccn2)nc1OCCO"
Result: no

Ask: Can you check "NNc1nnc(NN)c2ccccc12" next?
Result: no

Ask: Subsequent entry: "O=S1(=O)OC(c2ccc(O)cc2)(c2ccc(O)cc2)c2ccccc21"
Result: no

Ask: Also, "Cc1ccc(S(=O)(=O)NC(=O)NC2CCCCCCC2)cc1" please.
Result: no

Ask: Now try "O=C(Cn1ccnc1[N+](=O)[O-])NCc1ccccc1" .
Result: no

Ask: Can you check CCN(CC)CC1CCCCN1CC(=O)N1c2ccccc2C(=O)Nc2cccnc21 (stereo unspecified) next?
Result: no

Ask: Can you handle "N[C@@H](Cc1ccc(O)cc1)C(=O)O" next?
Result: no

Ask: Now consider "Cc1cc(OI)c(C(C)C)cc1-c1cc(C(C)C)c(OI)cc1C" and answer again.
Result: yes

Ask: Input CC1CC(OC(=O)c2ccccc2O)CC(C)(C)C1 (stereo unspecified)
Result: no

Ask: Please do the same for "Cc1cc(C)c(NC(=O)CN(CC(=O)O)CC(=O)O)c(C)c1Br" as well.
Result: no

Ask: Next entry: "COC(=O)c1ccc(O)cc1"
Result: no

Ask: And the next one, "Cc1cccc(Nc2ccccc2C(=O)O)c1C" ?
Result: no

Ask: Now consider "Cc1onc(-c2ccccc2)c1-c1ccc(S(N)(=O)=O)cc1" .
Result: no

Ask: Field entry: CCCC(O)C(CC)CO (stereo unspecified)
Result: no

Ask: How about "CCOC(=O)c1cccnc1" ?
Result: no

Ask: Next compound up: "CC(=O)NS(=O)(=O)c1ccc(N)cc1"
Result: no

Ask: Another compound to check: "Cc1cc(-n2nc3ccc(Cl)cc3n2)c(O)c(C(C)(C)C)c1"
Result: no

Ask: # repeat for CC(O)CCCCn1c(=O)c2c(ncn2C)n(C)c1=O (stereo unspecified)
Result: no

Ask: # repeat for "C[C@@H]1CCC[C@H](C)N1"
Result: no

Ask: Entry "O=C1c2ccccc2C(=O)C1c1ccc(Br)cc1" please
Result: yes

Ask: One more compound: NCC1CCC(C(=O)Oc2ccc(CCC(=O)O)cc2)CC1 (stereo unspecified)
Result: no

Ask: Now consider "CN(C(=O)c1c(O)c2ccccc2n(C)c1=O)c1ccccc1" and answer again.
Result: no

Ask: Input O=C(O)CCCCC1CCSS1 (stereo unspecified)
Result: no

Ask: Same thing, different compound: "O=C(NCCCN1CCOCC1)c1ccc(Cl)cc1"
Result: no

Ask: Next: "CCCCCC(N)=O"
Result: no

Ask: What do we get for "C[C@@H]1O[C@@H](OC[C@H]2O[C@@H](Oc3c(-c4ccc(O)c(O)c4)oc4cc(O)cc(O)c4c3=O)[C@H](O)[C@@H](O)[C@@H]2O)[C@H](O)[C@H](O)[C@H]1O" ?
Result: no

----------
System: CP268
MEASUREMENT PROTOCOL: qHTS profiling for inhibitors of Plasmodium falciparum proliferation (AID 504749); also: nearly all actives have a fitted effect of over 60% in size
SETTINGS: P. falciparum in erythrocytes, SYBR Green DNA, 72 h; series mostly up to 28.7 µM
Records with an inconclusive call do not appear. Active and inactive are the calls of the source. The call rests on the fitted dose curve; in most records, active means well fitted inhibition curve with a large enough effect; inconclusive means small, poorly fitted or top-dose-only effect; inactive means flat fitted curve, though single readings scatter. Where a SMILES comes first, the peptide text is derived from it. Bridges are numbered along the chain shown (N, C = ends). [ ]: non-standard residue; d: D form. hArg = N=C(N)NCCCC[C@H](N)C(=O)O; Mpa = O=C(O)CCS
Answer with one of the outcomes 1 = active, 0 = inactive

Ask: Kindly provide the recorded test outcome for the following compound: OCC(O)CS (stereo not given)
Result: 0

Ask: Another compound to look at: "CC(C)CCOC(=O)c1ccc(N(C)C)cc1"
Result: 0

Ask: Query "O=C1c2ccccc2C(=O)C1c1ccc(Br)cc1" next
Result: 0

Ask: Also need "CC(=O)NCc1c(I)c(NC(C)=O)c(I)c(C(=O)O)c1I" , thanks.
Result: 0

Ask: Ok, now "O=C(O)CNC(=O)c1ccccc1I"
Result: 0

Ask: Same again, this time with "CC(C)c1cc2c(cc1S(=O)(=O)O)[C@@]1(C)CCC[C@@](C)(C(=O)O)[C@@H]1CC2"
Result: 0

Ask: Next compound up: "CCCCCCCCCCOc1cc2c(=O)c(C(=O)OCC)c[nH]c2cc1OCC"
Result: 1

Ask: // repeat for "CC(=O)Nc1cccc(O)c1" and report
Result: 0

Ask: // next record "Nc1ccc(S(=O)(=O)c2ccc(N)cc2)cc1"
Result: 0

Ask: Try this compound next: "CC(=O)Nc1ccccc1"
Result: 0

Ask: Query CCN1CC(CCN2CCOCC2)C(c2ccccc2)(c2ccccc2)C1=O (stereo not given) next
Result: 0

Ask: What about CC1CCc2cc(F)cc3c(=O)c(C(=O)O)cn1c23 (stereo not given) ?
Result: 0

Ask: Now the compound "Cc1ccccc1N=Nc1ccc(N=Nc2c(O)ccc3ccccc23)c(C)c1"
Result: 0

Ask: Same lookup for "Cc1ccsc1C(=CCCN1CCC[C@@H](C(=O)O)C1)c1sccc1C" , please.
Result: 0

Ask: Consider next the compound "Nc1ncnc2c1ncn2[C@@H]1O[C@H](COP(=O)(O)O)[C@@H](O)[C@H]1O" in the same way.
Result: 0

Ask: Cool, now "CC(=O)Nc1ccc(OCCOCCOc2ccc(NC(C)=O)cc2)cc1"
Result: 0

Ask: // query: "CNc1c2c(nn1C)CCCC2"
Result: 0

Ask: Can you check "NC(=O)c1ccc([N+](=O)[O-])cc1Cl" next?
Result: 0

Ask: Moving on to the next compound: NC(=O)[C@@H]1CSSCCC(=O)N[C@@H](CCCCN=C(N)N)C(=O)NCC(=O)N[C@@H](CC(=O)O)C(=O)N[C@@H](Cc2c[nH]c3ccccc23)C(=O)N2CCC[C@H]2C(=O)N1 ([Mpa][hArg]GDWPC-NH2; disulfide 1-7)
Result: 0

Ask: How about this compound: "COc1ccc(O)cc1"
Result: 0

Ask: Record: "COc1ccc(Cc2cnc(N)nc2N)cc1OC"
Result: 0

Ask: Input "N[C@@H](Cc1ccc(O)cc1)C(=O)O"
Result: 0

Ask: # iterate: "O=C(O)Cn1c(C(=O)Nc2nc(-c3ccccc3Cl)cs2)cc2ccccc21"
Result: 0

Ask: Record: "O[C@@H]1CO[C@H]2[C@@H]1OC[C@@H]2O"
Result: 0

Ask: # iterate: "COc1cc(O)cc(O)c1"
Result: 0

----------
I'd be grateful if you could share measured max response for these entries.
Tested on: KB-3-1
MEASUREMENT PROTOCOL: Cytotoxic Profiling of Annotated Libraries Using Quantitative High-Throughput Screening (AID 1296008); also: % is scaled to controls: 0 for no effect and ±100 for the full control effect; nearly all actives have a fitted effect of over 60% in size
SETTINGS: Five cell lines viability, CellTiter-Glo ATP luminescence, 48-72 h, active compounds read low
Results filed as inconclusive are left out.
Express your answer in %, writing the number without its unit.

Ask: // query max response value for entry "O=c1[nH]c(=O)n([C@H]2C[C@H](O)[C@@H](CO)O2)cc1I"
Result: 5.94

Ask: Moving on to "CC(C)=CCC/C(C)=C/CO"
Result: 8.27

Ask: Thanks! And "O=C(O)CNC(=O)c1ccccc1I" ?
Result: 7.37

Ask: Same question for CC1(C)S[C@@H]2[C@H](NC(=O)C(C(=O)O)c3ccccc3)C(=O)N2[C@H]1C(=O)O (stereo partly drawn) please.
Result: 3.76

Ask: Continue with "COc1ccc(-c2cc(=O)c3c(O)cc(O[C@@H]4O[C@H](CO[C@@H]5O[C@@H](C)[C@H](O)[C@@H](O)[C@H]5O)[C@@H](O)[C@H](O)[C@H]4O)cc3o2)cc1O"
Result: -15.8

Ask: Try the compound "CC(=O)N[C@@H](CC(C)C)C(=O)O"
Result: -12.6

Ask: Try the compound "O=c1[nH]c2cc(C(F)(F)F)c(N3CCOCC3)cc2n(CP(=O)(O)O)c1=O"
Result: 8.61

Ask: What would you report for CC(O)CCCCn1c(=O)c2c(ncn2C)n(C)c1=O (stereo not drawn) ?
Result: -8.11
